# Tested on: J774.2 macrophage cell line
# EXPERIMENT SUMMARY: Cytotoxic analysis against J774.2 macrophages (MTT)
# MEASUREMENT CONDITIONS: read-out: Cytotoxicity CC50 J774.2; mouse macrophages J774.2, 48 h, MTT

| COMPOUND | CC50 |
| --- | --- |
| CNC[C@H](O)[C@@H](O)[C@H](O)[C@H](O)CO.[O]=[Sb](=[O])[OH] [Glu, Glucantime, reference compound] | > 273 µM |

----------
# EXPERIMENT SUMMARY: Cytotoxic analysis against J774.2 macrophages (MTT)
# MEASUREMENT CONDITIONS: mouse
EXPERIMENTAL ENDPOINT: CC50 at 48 h (µM)

| COMPOUND | CMP | REPORTED VALUE |
| --- | --- | --- |
| CC(C)=CCC/C(C)=C\CO [Compound 13, nerol] | > | 200 |
| OCc1ccc2c(c1)OCO2 [Compound 6, piperonyl alcohol] | = | 62.2 |
| CC1=CC[C@@H](C(C)(C)O)CC1 [Compound 16, α-terpineol] | = | 63.4 |
| CC(C)=CCC/C(C)=C/CO [Compound 12, geraniol] | > | 200 |
